# METHOD NOTES: chemical genetic growth profiling, strain panel (AID 1159580);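 note: tested at 20 µM; growth read once vehicle control cultures reached saturation at 30 °C; 1 = growth at the plate median or of vehicle wells; lower values mean less growth of the strain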
# ASSAY CONDITIONS: S. cerevisiae deletion strains, growth OD, locus YIL073C, strain SPO22
The whole screen tested about 5,500 compounds, of which about 2,000 (36%) were called active. Roughly 18% stayed inconclusive and do not appear here. Cut-off read from the data, not from the text of the source: active = normalized growth mostly below about 0.91 (no sharp cut-off); inconclusive = no clear call, values can overlap the other calls; inactive = mostly above about 0.92. The list shows a part of the results. Where a SMILES comes first, the peptide text is derived from it. Bridges are numbered along the chain shown (N, C = ends). Side-chain parts run from the residue outwards. [ ]: non-standard residue; d: D form. The star is where a group is joined. Octanoyl(6-Me) = CCC(C)CCCCC(=O)*; X1 = CCC(C)C(N)C1=NC(C(=O)*)CS1; Orn = NCCC[CH](N)C(=O)O; Dab = NCC[CH](N)C(=O)O
Respond using exactly one of the listed classes: active, inactive

* CC(=O)Oc1cccc2c1C(=O)c1c(OC(C)=O)cc(C(=O)O)cc1C2=O | inactive
* CO[C@@]1(NC(=O)Cc2cccs2)C(=O)N2C(C(=O)O)=C(COC(N)=O)CS[C@@H]21 | inactive
* CC[C@@H](CO)NC(=O)[C@@H]1C=C2c3cccc4[nH]cc(c34)C[C@H]2N(C)C1 | inactive
* O=C(CCBr)N1CCN(C(=O)CCBr)CC1 | inactive
* CCC(C)C(N)C1=NC(C(=O)NC(CC(C)C)C(=O)NC(CCC(=O)O)C(=O)NC(C(=O)NCCCCC2NC(=O)C(CC(N)=O)NC(=O)C(CC(=O)O)NC(=O)C(Cc3cnc[nH]3)NC(=O)C(Cc3ccccc3)NC(=O)C(C(C)CC)NC(=O)C(CCCN)NC2=O)C(C)CC)CS1 (stereo not drawn) (cyclo(DNK([Ile-Glu-Leu-X1])[Orn]IFH); configuration not given here) | inactive

Request: Look up the recorded call for Cc1cc(C(C)(C)C)cc(C)c1CC1=NCCN1 in this test.
Result: inactive

Request: What do you get for CC1(C)C=Cc2cc3ccc(=O)oc3cc2O1 ?
Result: inactive

Request: Then what about the compound CCOC([O-])=Nc1c[n+](N2CCOCC2)no1 ?
Result: inactive

Request: Thanks! And CC1=CC(=O)C2=C(C)CC(O)C3C(C)C(=O)OC3C12 (configuration not stated) ?
Result: inactive

Request: How about this compound: C=C(C)[C@H]1Cc2c(ccc3c2O[C@@H]2COc4cc(OC)c(OC)cc4[C@@H]2C3=O)O1
Result: inactive

Request: Next: O=C(OC[C@H]1O[C@H](OC(=O)c2cc(O)c(O)c(OC(=O)c3cc(O)c(O)c(O)c3)c2)[C@H](OC(=O)c2cc(O)c(O)c(OC(=O)c3cc(O)c(O)c(O)c3)c2)[C@@H](OC(=O)c2cc(O)c(O)c(OC(=O)c3cc(O)c(O)c(O)c3)c2)[C@@H]1OC(=O)c1cc(O)c(O)c(OC(=O)c2cc(O)c(O)c(O)c2)c1)c1cc(O)c(O)c(OC(=O)c2cc(O)c(O)c(O)c2)c1
Result: active

Request: Note, next up: NCCc1c[nH]c2ccccc12
Result: inactive

Request: Again, but for Cc1ccc(N(CC2=NCCN2)c2cccc(O)c2)cc1
Result: inactive

Request: What about this compound? CC(=O)c1cc2c(cc1O)OC(C)(C)C=C2
Result: inactive

Request: CCC(C)CCCCC(=O)NC(CCN)C(=O)NC(C(=O)NC(CCN)C(=O)NC1CCNC(=O)C(C(C)O)NC(=O)C(CCN)NC(=O)C(CCN)NC(=O)C(CC(C)C)NC(=O)C(Cc2ccccc2)NC(=O)C(CCN)NC1=O)C(C)O (configuration not stated) ({Octanoyl(6-Me)}-[Dab]T[Dab][Dab][Dab]FL[Dab][Dab]T; lactam 4-C; configuration not given here) ?
Result: inactive

Request: Next: NCC1OC(OC2C(CO)OC(OC3C(O)C(N)CC(N)C3OC3OC(CO)C(O)CC3N)C2O)C(N)C(O)C1OC1OC(CO)C(O)C(O)C1O (configuration not stated)
Result: inactive

Request: Also check O=c1[nH]cnc2c1ncn2C1O[C@H](CO)[C@@H](O)[C@H]1O (some centres not stated)
Result: inactive

Request: Input CCN(CC)CCNC(=O)c1cc(Cl)c(N)cc1OC
Result: inactive

Request: Quick one: CC(=O)Oc1cc2c(c(C)c1OC(C)=O)CC1OC13C2(C)CCC1(C)C2CC(C)(C(=O)O)CCC2(C)CCC13C (configuration not stated)
Result: inactive

Request: Next: CCc1cccc2c3c([nH]c12)C(CC)(CC(=O)O)OCC3 (configuration not stated)
Result: inactive

Request: Try the compound CC(=O)Oc1cccc(C(=O)O)c1OC(C)=O
Result: inactive

Request: Can you check COC(=O)[C@]1(C)CC[C@]2(C)CC[C@]3(C)C4=CC=C5C(=CC(=O)C(O)=C5C)[C@]4(C)CC[C@@]3(C)[C@@H]2C1 next?
Result: active

====

# METHOD NOTES: chemical genetic growth profiling, strain panel (AID 1159580);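 note: tested at 20 µM; growth read once vehicle control cultures reached saturation at 30 °C; 1 = growth at the plate median or of vehicle wells; lower values mean less growth of the strain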
# ASSAY CONDITIONS: S. cerevisiae deletion strains, growth OD, locus YER133W, strain GLC7, hits give low values
Hit rate of the full screen: of about 5,500 compounds, about 2,000 (36%) were called active. Roughly 18% stayed inconclusive and do not appear here. Some of the results follow.
EXPERIMENTAL READOUT: normalized growth
Answer with a bare number; do not write a unit.

Worked set:
- CCOC(=O)c1cnc2c(c(C)nn2C)c1Sc1nnc(SC)s1: 0.657
- Cc1ccc(OCc2n[nH]c(=S)n2Cc2ccccc2)c2c1CCC2: 0.841
- C/C(=N/NC(=O)c1ccc(C(C)(C)C)cc1)c1ccccc1O: 0.979
- CC(=O)c1ccccc1C(=O)c1ccc(C(C)(C)C)cc1: 0.953

Request: Could you tell me which normalized growth is on file for COc1cc(N2C(=O)C=CC2=O)cc(OC)c1OC ?
Result: 0.226

Request: Record: CSc1nnc(COc2ccc(C)c3c2CCC3)n1-c1ccccc1
Result: 0.941

Request: Now this one: N#C/C(=N/Nc1cccc(C(F)(F)F)c1)C(=O)c1csc(-c2cccnc2)n1
Result: 0.883

====

# METHOD NOTES: chemical genetic growth profiling, strain panel (AID 1159580);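 note: tested at 20 µM; growth read once vehicle control cultures reached saturation at 30 °C; 1 = growth at the plate median or of vehicle wells; lower values mean less growth of the strain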
# ASSAY CONDITIONS: S. cerevisiae deletion strains, growth OD, locus YMR058W, strain fet3
Hit rate of the full screen: of about 5,500 compounds, about 2,000 (36%) were called active. Roughly 18% stayed inconclusive and do not appear here. Rule as the data show it: active = normalized growth mostly below about 0.91 (no sharp cut-off); inconclusive = no clear call, values can overlap the other calls; inactive = mostly above about 0.92. The list shows a part of the results. *1 amine or outer side, *2 acyl side, *3 side chain or, on linkers, in order; H or OH if unused. Where a SMILES comes first, the peptide text is derived from it. Bridges are numbered along the chain shown (N, C = ends). [ ]: non-standard residue; d: D form. The star is where a group is joined. ξ: configuration not given here. ΔAla(E,3-NHCONH2) = NC(=O)N/C=C(/N)C(=O)O; X2 = NC1=NCCC(C(N[*:1])C(=O)[*:2])N1; ξβ3hOrn = NCCCC(N)CC(=O)*; Dap = NC[CH](N)C(=O)O
Select the correct class. Options are 1.0 for active, 0.0 for inactive and nothing else.

• COC1(C)CCC2OC2(C)CCC2C1CC2(C)C (configuration not stated) = 0.0
• C=C(C)[C@@H]1CC[C@]2(CO)CC[C@]3(C)[C@H](CCC4[C@@]5(C)CC[C@H](O)C(C)(C)C5CC[C@]43C)C12 (some centres not stated) = 0.0
• CCCc1nc2c(C)cc(-c3nc4ccccc4n3C)cc2n1Cc1ccc(-c2ccccc2C(=O)O)cc1 = 0.0
• NCCc1c[nH]c2ccccc12 = 0.0
• O=C(CCBr)N1CCN(C(=O)CCBr)CC1 = 0.0
• C#CC1(O)CCC2C3CCC4=CC(=O)CCC4(C)C3CCC21C (configuration not stated) = 0.0
• CC[C@H]1CN2CCc3cc(OC)c(OC)cc3C2C[C@@H]1CC1NCCc2cc(OC)c(OC)cc21 (some centres not stated) = 0.0
• COc1cc(-c2oc3cc(O)ccc3c(=O)c2O)ccc1O = 1.0
• NCCCC(N)CC(=O)NCC1NC(=O)C(CO)NC(=O)C(N)CNC(=O)C(C2CCN=C(N)N2)NC(=O)/C(=C\NC(N)=O)NC1=O (stereo not drawn) (H-[Dap]S[Dap](ξβ3hOrn)[ΔAla(E,3-NHCONH2)][X2]; lactam 1-C; configuration not given here) = 0.0
• CC[C@H]1OC(=O)[C@H](C)[C@@H](O[C@H]2C[C@@](C)(OC)[C@@H](O)[C@H](C)O2)[C@H](C)[C@@H](O[C@@H]2O[C@H](C)C[C@H](N(C)C)[C@H]2O)[C@](C)(O)C[C@@H](C)[C@@H]2N[C@@H](COCCOC)O[C@H]([C@H]2C)[C@]1(C)O = 0.0

Request: What did this assay record as the result for CCCCc1nc(Cl)c(CO)n1Cc1ccc(-c2ccccc2-c2nn[nH]n2)cc1 ?
Result: 0.0

Request: For CN(C)CCc1c[nH]c2ccc(CS(=O)(=O)N3CCCC3)cc12 then?
Result: 0.0

Request: Now this one: CCc1cccc2c3c([nH]c12)C(CC)(CC(=O)O)OCC3 (configuration not stated)
Result: 0.0

Request: Field entry: CC(=O)OC[C@H]1O[C@@H](Oc2cc(OC(C)=O)c3c(=O)cc(-c4ccc(OC(C)=O)cc4)oc3c2)[C@H](OC(C)=O)[C@@H](OC(C)=O)[C@@H]1OC(C)=O
Result: 0.0

Request: Query CC(=O)N[C@@H](Cc1c[nH]c2ccccc12)C(=O)O next
Result: 0.0

Request: Now consider c1ccc2c(Cc3c[nH]c4ccccc34)c[nH]c2c1 and answer again.
Result: 1.0

Request: Next compound up: O=C(NC1CCCCC1)NC1CCCCC1
Result: 0.0

Request: Same read-out for OCc1c[nH]c2ccccc12 ?
Result: 0.0

Request: Please give the result for COc1cc(-c2coc3cc(O[C@@H]4O[C@H](CO)[C@@H](O)[C@H](O)[C@H]4O)c(OC)c(O)c3c2=O)cc(O)c1OC too.
Result: 0.0

Request: Now try C1CCC(C(CC2CCCCN2)C2CCCCC2)CC1 (configuration not stated) .
Result: 1.0

Request: Another compound to check: O=C(CCc1ccc(O)cc1)c1c(O)cc(O)cc1O[C@@H]1O[C@H](CO)[C@@H](O)[C@H](O)[C@H]1O
Result: 0.0

Request: // same read-out, input: CC(=O)CC1CCCCN1 (configuration not stated)
Result: 0.0

Request: Field entry: CC(=O)OCC(=O)[C@@]12OC3(CCCC3)O[C@@H]1CC1C3CCC4=CC(=O)C=C[C@]4(C)[C@@]3(F)[C@@H](O)C[C@@]12C (some centres not stated)
Result: 0.0

Request: # repeat for CN(C)C(=N)N=C(N)N
Result: 0.0

Request: Similarly, NC(=O)N1c2ccccc2C=Cc2ccccc21 ?
Result: 0.0
